# Test system: C2A
# ASSAY EXPLANATION: qHTS profiling for inhibitors of Plasmodium falciparum proliferation (AID 504749); note: nearly all actives have a fitted effect of over 60% in size
# CONDITIONS: P. falciparum in erythrocytes, SYBR Green DNA, 72 h; series mostly up to 28.7 µM
Inconclusive results are not listed. Active and inactive are the calls of the source. Calls come from the whole dose curve; as a rule, active = well fitted inhibition curve with a large enough effect; inconclusive = small, poorly fitted or top-dose-only effect; inactive = flat fitted curve, though single readings scatter.
Your answer must be one of the following: 1 (yes) for active, 0 (no) for inactive

{"MOLECULE": "CC1(C)C2CC[C@]1(C)[C@@H](O)C2", "ASSIGNED CATEGORY": "0 (no)"}

Assay result, entry NC(=O)OC[C@@H]1[C@H](NC(=O)/C(=N/OCC(=O)O)c2csc(N)n2)C(=O)N1S(=O)(=O)O — outcome?
0 (no)

In this assay, the call recorded for CN[C@H](C)CCC=C(C)C was what?
1 (yes)

Which outcome did this test record for the molecule O=C(O)CC(O)CC(O)/C=C/c1c(C2CC2)nc2ccccc2c1-c1ccc(F)cc1 (stereo not given) ?
0 (no)

What was the test verdict on C=C[C@@]1(C)C[C@H](OC(=O)CSC(C)(C)CNC(=O)[C@@H](N)C(C)C)[C@@]2(C)C(C)CC[C@@]3(CCC(=O)[C@@H]32)[C@H](C)[C@H]1O (stereo not given in full) ?
1 (yes)
